Measurement description: CCTE_Mundy_HCI_hN2_NOG_NeuronCount: CCTE's Neurite Outgrowth Assay in human hN2 cells for Neuron Count, Mundy Lab (AID 2284221)
Inconclusive results are not listed. The source made the active and inactive calls. Rule for the calls: active = hit-call score of the fitted dose curve at least 0.9, where 1 is the maximum; inconclusive = response in the unintended direction; inactive = score below 0.9.
Outcome codes: active, inactive

{"Sample smiles": "CC(=O)[O-].CC(=O)[O-].O.O.O.[Pb+2]", "Qualitative label": "active"}
{"Sample smiles": "O=[As]O", "Qualitative label": "active"}
{"Sample smiles": "CCC[CH2][Sn]([CH2]CCC)([CH2]CCC)[O][Sn]([CH2]CCC)([CH2]CCC)[CH2]CCC", "Qualitative label": "active"}
{"Sample smiles": "[CH3][Hg][Cl]", "Qualitative label": "active"}
{"Sample smiles": "O.O.O.O.O.[Cd+2].[Cd+2].[Cl-].[Cl-].[Cl-].[Cl-]", "Qualitative label": "active"}
{"Sample smiles": "CN[C@]1(c2ccccc2Cl)CCCCC1=O", "Qualitative label": "inactive"}
{"Sample smiles": "[CH3][Sn]([CH3])[CH3]", "Qualitative label": "inactive"}
{"Sample smiles": "Brc1ccc(Oc2ccc(Br)cc2Br)c(Br)c1", "Qualitative label": "active"}

* * *

Target or system: human p21 Activated Kinase 4 (PAK4), PAK4 (gene 10298)
Measurement description: NVS_ENZ_hPAK4: NovaScreen (NVS) Enzymatic Assay for human p21 Activated Kinase 4 (PAK4) (AID 2283189)
Inconclusive results are not listed. Active and inactive are the calls of the source. The calls were made as follows: active = hit-call score of the fitted dose curve at least 0.9, where 1 is the maximum; inconclusive = response in the unintended direction; inactive = score below 0.9.
Outcome codes: 1.0 for active, 0.0 for inactive

{"Compound": "O=C(O)Cc1cc(I)c(Oc2cc(I)c(O)c(I)c2)c(I)c1", "Qualitative label": 0.0}
{"Compound": "COc1ccc2sc(C(=O)Nc3nnn[nH]3)c(OC(C)C)c2c1", "Qualitative label": 0.0}
{"Compound": "Cc1[nH]nc2c1N=C(c1ccccc1Cl)c1cc([N+](=O)[O-])ccc1N2", "Qualitative label": 1.0}
{"Compound": "O=C(OCCCCCOC(=O)c1ccccc1)c1ccccc1", "Qualitative label": 0.0}
{"Compound": "CCc1c(C(=O)NN2CCCCC2)nn(-c2ccc(Cl)cc2Cl)c1-c1ccc(Br)cc1", "Qualitative label": 0.0}
{"Compound": "CC/C(=C\\C(=N/O)C(N)=O)C(C)[N+](=O)[O-] (stereo unspecified)", "Qualitative label": 0.0}

* * *

Measurement description: ATG_VDRE_CIS: Attagene CIS-FACTORIAL HepG2 Assay for human Vitamin D Receptor Element (VDRE) (AID 2282968)
Setup conditions: HepG2 VDRE cis-reporter transcription, actives raise or lower the signal
Activity calls are given as the source filed them. The calls were made as follows: active = hit-call score of the fitted dose curve at least 0.9, where 1 is the maximum; inactive = score below 0.9.
Outcome codes: 1 (yes) (active), 0 (no) (inactive)

{"Compound": "CC(=O)c1cc2c(cc1C)C(C)(C)C(C)CC2(C)C (stereo not given)", "Qualitative label": "0 (no)"}
{"Compound": "CSc1nc(N=[N+]=[N-])nc(NC(C)C)n1", "Qualitative label": "0 (no)"}
{"Compound": "CCCCNP(N)(N)=S", "Qualitative label": "0 (no)"}
{"Compound": "O=C=Nc1ccccc1", "Qualitative label": "0 (no)"}
{"Compound": "Cc1ccc(C)c2ccccc12", "Qualitative label": "0 (no)"}
{"Compound": "C=CCN(CC=C)C(=O)C(Cl)Cl", "Qualitative label": "0 (no)"}
{"Compound": "C[N+](C)=CCl", "Qualitative label": "0 (no)"}
{"Compound": "CC(C)C(=O)Cl", "Qualitative label": "0 (no)"}
{"Compound": "O=[N+]([O-])C=Cc1ccccc1", "Qualitative label": "1 (yes)"}
{"Compound": "N#CCNCC#N", "Qualitative label": "0 (no)"}
{"Compound": "C=CCc1ccc(OC(=O)Cc2ccccc2)c(OC)c1", "Qualitative label": "1 (yes)"}
{"Compound": "CCC(=O)c1ccc(Cl)cc1", "Qualitative label": "0 (no)"}
{"Compound": "[CH3][Sn]([Cl])([Cl])[Cl]", "Qualitative label": "0 (no)"}
{"Compound": "Cl/C=C\\CCl", "Qualitative label": "0 (no)"}
{"Compound": "ClC1=C(Cl)[C@]2(Cl)[C@@H]3[C@@H](Cl)[C@H](Cl)C[C@@H]3[C@@]1(Cl)C2(Cl)Cl", "Qualitative label": "0 (no)"}

* * *

Target or system: Retinoic acid receptor RXR-alpha (Homo sapiens) (UniProt P19793)
Sequence (P19793 whole entry, looked up): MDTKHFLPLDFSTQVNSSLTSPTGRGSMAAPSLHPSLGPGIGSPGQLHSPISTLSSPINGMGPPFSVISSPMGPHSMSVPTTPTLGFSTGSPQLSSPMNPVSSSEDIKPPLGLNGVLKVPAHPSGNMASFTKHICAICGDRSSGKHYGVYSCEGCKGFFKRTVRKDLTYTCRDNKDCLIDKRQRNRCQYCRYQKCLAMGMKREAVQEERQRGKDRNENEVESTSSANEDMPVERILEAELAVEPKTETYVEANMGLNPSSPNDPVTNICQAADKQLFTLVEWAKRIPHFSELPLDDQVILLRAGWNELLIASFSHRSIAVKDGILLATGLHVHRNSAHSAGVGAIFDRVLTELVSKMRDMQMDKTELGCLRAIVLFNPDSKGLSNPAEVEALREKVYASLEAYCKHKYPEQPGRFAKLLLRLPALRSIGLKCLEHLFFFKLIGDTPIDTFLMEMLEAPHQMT
Measurement description: ATG_RXRa_TRANS: Attagene TRANS-FACTORIAL HepG2 Assay for human Retinoid X Receptor alpha (RXRa) (AID 2283012)
Records with an inconclusive call do not appear. The source made the active and inactive calls. The calls were made as follows: active = hit-call score of the fitted dose curve at least 0.9, where 1 is the maximum; inconclusive = response in the unintended direction; inactive = score below 0.9.

{"Sample smiles": "CN(C)N", "outcome": "inactive"}
{"Sample smiles": "CCCCCCCCCCCCCCCC[N+](C)(C)C", "outcome": "inactive"}
{"Sample smiles": "N#CCCCCC#N", "outcome": "inactive"}

* * *

Measurement description: ATG_EGR_CIS: Attagene CIS-FACTORIAL HepG2 Assay for human Early Growth Response 1 (EGR1) (AID 2282938)
Setup conditions: HepG2 Attagene CIS-FACTORIAL EGR reporter mRNA; actives raise or lower the signal
Active and inactive are the calls of the source. The calls were made as follows: active = hit-call score of the fitted dose curve at least 0.9, where 1 is the maximum; inactive = score below 0.9.
Outcome codes: TRUE = active, FALSE = inactive

{"Compound": "O=C1Nc2ccc(Cl)cc2C(c2ccccc2)=NC1O (configuration not stated)", "Qualitative label": "FALSE"}
{"Compound": "C=CC(=O)OCC(CC)CCCC (configuration not stated)", "Qualitative label": "FALSE"}
{"Compound": "C[C@]12CC[C@H](O)C[C@H]1CC[C@@H]1[C@@H]2C[C@@H](O)[C@]2(C)[C@@H](C3=CC(=O)OC3)CC[C@]12O", "Qualitative label": "TRUE"}
{"Compound": "C[N+](C)=CCl", "Qualitative label": "FALSE"}
{"Compound": "Cc1ccc(C)c2ccccc12", "Qualitative label": "FALSE"}
{"Compound": "S=c1[nH]c2ccccc2[nH]1", "Qualitative label": "FALSE"}
{"Compound": "C[N+](C)(C)CC(=O)O", "Qualitative label": "FALSE"}

* * *

Target or system: human Peroxisome Proliferator-activated Receptor alpha (PPARa), PPARA (gene 5465)
Measurement description: ATG_PPARa_TRANS: Attagene TRANS-FACTORIAL HepG2 Assay for human Peroxisome Proliferator-activated Receptor alpha (PPARa) (AID 2283001)
Results filed as inconclusive are left out. Active and inactive are the calls of the source. Rule for the calls: active = hit-call score of the fitted dose curve at least 0.9, where 1 is the maximum; inconclusive = response in the unintended direction; inactive = score below 0.9.
Outcome codes: active, inactive

{"Compound": "O=C(O)COc1ccccc1", "Qualitative label": "inactive"}
{"Compound": "CCOC(=O)N(C)N=O", "Qualitative label": "inactive"}
{"Compound": "C=COCCCl", "Qualitative label": "inactive"}
{"Compound": "O=[N+]([O-])c1cc(C(F)(F)F)c(Cl)c([N+](=O)[O-])c1Cl", "Qualitative label": "active"}
{"Compound": "O=S(=O)(O)O", "Qualitative label": "inactive"}
{"Compound": "O=C1C=CC(=O)C=C1", "Qualitative label": "inactive"}
{"Compound": "ClCC(Cl)Cl", "Qualitative label": "inactive"}
{"Compound": "N#Cc1cccc(C#N)c1", "Qualitative label": "inactive"}
{"Compound": "CC(C)C#N", "Qualitative label": "inactive"}
{"Compound": "O=c1c2ccccc2c(=O)c2c1cc(Cl)c1[nH]c3c([nH]c12)c(Cl)cc1c(=O)c2ccccc2c(=O)c13", "Qualitative label": "inactive"}
{"Compound": "N#CCNCC#N", "Qualitative label": "inactive"}
{"Compound": "C=C(Cl)CCl", "Qualitative label": "inactive"}
{"Compound": "O=P1(NCCCl)OCCCN1CCCl (stereo not given)", "Qualitative label": "inactive"}
{"Compound": "CCCCOP(=O)(O)OCCCC", "Qualitative label": "inactive"}
{"Compound": "O=C(O)CCl", "Qualitative label": "inactive"}
{"Compound": "CN(N=O)c1ccccc1", "Qualitative label": "inactive"}
{"Compound": "Cc1ccccc1CCl", "Qualitative label": "inactive"}
{"Compound": "O=C(CCl)c1ccccc1", "Qualitative label": "active"}
{"Compound": "Nc1cc(Cl)cc(Cl)c1", "Qualitative label": "inactive"}
{"Compound": "ClCCCCCCCl", "Qualitative label": "inactive"}
{"Compound": "O=C(NC(=O)c1c(F)cccc1F)Nc1ccc(Oc2ccc(C(F)(F)F)cc2Cl)cc1F", "Qualitative label": "inactive"}
{"Compound": "CCNCC", "Qualitative label": "inactive"}
{"Compound": "SCc1ccco1", "Qualitative label": "active"}
{"Compound": "Nc1c(Cl)c(Cl)c(Cl)c(Cl)c1Cl", "Qualitative label": "inactive"}
{"Compound": "Nc1ccc(Cl)c(Cl)c1", "Qualitative label": "inactive"}
{"Compound": "O=C1Nc2ccc(Cl)cc2C(c2ccccc2)=NC1O (stereo not given)", "Qualitative label": "inactive"}
{"Compound": "[N-]=[N+]=CC(=O)OC[C@H](N)C(=O)O", "Qualitative label": "inactive"}
{"Compound": "CC(C)(Cl)Cl", "Qualitative label": "inactive"}
{"Compound": "N#CCCCl", "Qualitative label": "inactive"}
{"Compound": "O=[N+]([O-])c1ccc(Cl)cc1", "Qualitative label": "inactive"}
